System: MS2 coat protein
Assay: apparent KD of MS2 coat protein; designed switch direction (-1 OFF switch, 1 ON switch): -1; higher = weaker reporter binding
Conditions: input ligand: FMN 200 uM
measurement type: apparent KD of MS2 coat protein (nM)
Give bare numbers, in nM.

primary_sequence="UUGUACCGGUGAGGAUAUUUUUAAUAGAGCUUUAUGAUAUACAUGAGGAUCACCCAUGUUACGUUAAAGAAGGCAUCGGAUUAU [JL JR Sub091 mod 4] (Eterna round: R96, puzzle: Exclusion NG 2)" assayed_system="MS2 coat protein" test_result=18.6
primary_sequence="UUAAUUAGCAGGCAAGAUCAUUACAUGAGGAUCACCCAUGUCGAGGAUAUCAGCUCGAUUAGAGCUGAGAAGGCGACAGCCUGC [ExNG3/13-A1] (Eterna round: R96, puzzle: Exclusion NG 3)" assayed_system="MS2 coat protein" test_result=1540

**Q:** Find apparent KD of MS2 coat protein for CCAAAGCGAGGAUAUACUUGCGACCCAAGCGUGGAAGACAUACUUGAGGAUCACCCAAGUAGAAGGCGCGCCAA [Dibixela] (Eterna round: R97, puzzle: Exclusion 2) on MS2 coat protein and write it down.
**A:** 145
